Assay: NCI Yeast Anticancer Drug Screen. Data for the mlh1 rad18 strain (AID 175)
Conditions: S. cerevisiae mlh1 rad18 strain growth inhibition; at 5.0 µM (retest, dose inferred, filed as 0.5); active compounds read high
The panel holds about 79,000 compounds, 15% with a hit somewhere; the sample as a whole holds those more often.
MEASURED_PROPERTY: growth inhibition (%)

> print(dat)
                                    compound  recorded.number
 1  O=C(NCCCCN(CCCNC(=O)C(F)(F)F)Cc1ccccc1)C(F)(F)F               19
 2  CC1CCN(CCC(=O)c2ccc([N+](=O)[O-])cc2)CC1                7
 3  c1ccc(-c2cc(C3CO3)c3ccccc3n2)cc1 (stereo not drawn)              -17
 4  O=C(NNc1ccccc1)C(CCCCNS(=O)(=O)Cc1ccccc1)NS(=O)(=O)Cc1ccccc1 (stereo not drawn)               14
 5  CCCCCCCCCCCCCCCCCCN(C)C(COC)COP(=O)([O-])OCC[N+](C)(C)C (stereo not drawn)               16
 6  COC(=O)C(Cl)(Cl)N=Nc1c(Cl)cc(Cl)c(C)c1Cl               59
 7      CC(C)(C)c1ccc2c(c1)C(=O)c1ccccc1C2=O                5
 8  O=C(O)C1CCCCC1c1c2ccc(=O)cc-2oc2cc(O)ccc12 (stereo not drawn)               47
 9          O=[N+]([O-])c1ccc2nc(=S)[nH]n2c1             -133
10              CN(C)CC1=Nc2cccc3cccc(c23)N1              -32
11  COc1ccc(/C=C2\SC(=S)N(/C=C3\C(=O)N(c4ccccc4)N=C3C)C2=O)cc1OC                7
12  CC(C)OP(=O)(OC(C)C)C(=NCCO)NNc1ccc([N+](=O)[O-])cc1               48
13    Cc1cc(Cl)ccc1NC(=O)/C(Cl)=C(/Cl)C(=O)O                0
14  CCCCCc1c(CCCC)c(=O)[nH]c2cc(CNCC(OC)OC)ccc12               50
15  O=C(CCCN1CCC(Nc2ccc(F)cc2)(c2nnnn2C2CCCCC2)CC1)c1ccc(F)cc1               -3
16  CCCNC(=O)OCc1c(COC(=O)NCCC)c(-c2ccc(Cl)c(Cl)c2)n2c1CCC2               22
17     CCCCCCCCSC1=C(Cl)C(=O)C(OC)=C(OC)C1=O               36
18  COC(=O)C1CCCCC1C(=O)Nc1ccccc1 (stereo not drawn)               -3
19   COc1ccc(N=c2cc(-c3ccccc3)oc3ccccc23)cc1               -2
20  O=C1CC(C(O)(C(F)(F)F)C(F)(F)Cl)CCC1C(O)(C(F)(F)F)C(F)(F)Cl (stereo not drawn)               42
21               c1ccc2nc3c(nc2c1)sc1ccccc13              -71
22     CCOP(=O)(OCC)/C(C#N)=C\c1cccc2ccccc12              -13
23  CC1C(c2ccccc2)SC(=N)N1C (stereo not drawn)                6

----------
Test: NCI Yeast Anticancer Drug Screen. Data for the CLN2oe strain (AID 163);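 further: 0% = growth of vehicle-only control cultures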
Details: S. cerevisiae CLN2oe strain, at 100.0 µM
Method: Growth inhibition of yeast strains with defined genetic alterations is measured as a screen for potential anti-cancer activity. Selected strains with alterations in DNA damage repair or cell cycle control were exposed to compounds and growth inhibition was measured relative to vehicle treated controls. The strain used in this assay is CLN2oe
About 79,000 compounds went through this panel and 15% of them were active in at least one assay; those are over-represented in the sample as a whole. Activity calls are given as the source filed them. Cut-off read from the data, not from the text of the source: active = growth inhibition above about 70%; inactive = the rest.
Outcomes: true = active, false = inactive

> print(dat)
                                    compound  label.class
 1  COc1cc(OC)c(CSCC(NC(=O)OCC2c3ccccc3-c3ccccc32)C(=O)O)c(OC)c1 (stereo not given)         true
 2                   O=C(NO)c1coc2ccccc2c1=O        false
 3  CCCCS/C(=C(/C#N)C(N)=O)c1cc2c([nH]1)CCCC2        false
 4       CSc1nc(-c2ccccc2)nc(=[N+]2CCOCC2)s1         true
 5                     COC(=N)c1ccc(O)c(C)c1        false
 6   O=C(/C(=C/c1ccc(O)cc1)c1ccccc1)c1ccccc1         true
 7  O=C(Nn1c(-c2ccccc2)nc2ccccc2c1=O)c1ccc(CS)cc1         true
 8                Cc1cc2nc3ccccc3n2c2ccccc12        false
 9                CCC(=O)Nc1ccc(N=NN(C)C)cc1         true
10           COC(=O)c1ccccc1N=NNc1cccc(SC)c1         true
11             CN(N=O)C(=O)Nc1ccc(C(=O)O)cc1        false
12  O=C1C(=O)c2cccc([N+](=O)[O-])c2-c2ccccc21         true
13  COC(=O)C1CCCCC1C(=O)Nc1ccccc1 (stereo not given)        false
14                   CN(C)N=Nc1ccc(N(C)C)cc1        false
15     COc1cc2oc3ccccc3c(=O)c2cc1CSc1ccccc1N        false
16                Nc1cc2c(cc1N)-c1ccccc1C2=O        false
17      OC(c1ccccc1)(c1ccccc1)c1nccc2ccccc12        false
18  O=NC1c2cccc3cccc(c23)C1N=O (stereo not given)        false
19                Cc1nc2sc3c(c2c(=O)o1)CCCC3        false
20  O=C(Cc1ccccc1)NNc1nc(NNC(=O)c2ccncc2)nc(Nc2ccc(Cl)cc2)n1        false
21  CC(C)[Si]1(C(C)C)OCC2OC(n3cnc4c(N)ncnc43)C(N)C2O[Si](C(C)C)(C(C)C)O1 (stereo not given)         true
22  CC(C)OP(=O)(OC(C)C)/C(Cl)=N/Nc1ccc([N+](=O)[O-])cc1         true
23               CCCCCCC=C(C(=O)OCC)C(=O)OCC        false
24  CCCCN(CCC#N)c1ccc(/C=C/c2ccnc3ccccc23)cc1        false
25  C=CC(C)(C)N1C(=O)C(C(C)=O)=C(O)C1Cc1c[nH]c2ccccc12 (stereo not given)         true

----------
Entries and their growth inhibition values follow.
Assay: NCI Yeast Anticancer Drug Screen. Data for the mec2-1 strain (AID 157)
Conditions: S. cerevisiae mec2-1 strain, at 100.0 µM, active compounds read high
Compounds without any hit were thinned out: in the full panel of roughly 79,000, 15% have a hit.
MEASURED_PROPERTY: growth inhibition (%)

> print(dat)
                                    compound  measured.property  measure.unit  recorded.number
 1          O=C1c2ccccc2-c2cc3ccccc3c(=O)n21  growth inhibition             %               77
 2  CCS(=O)(=O)Nc1ccc(Nc2c3ccccc3nc3ccccc23)c(OC)c1  growth inhibition             %               89
 3  CNC(=O)OCc1c(COC(=O)NC)c(C)n(-c2ccc(Br)cc2)c1C  growth inhibition             %               97
 4  O=C(O)C1CCCCC1c1c2ccc(=O)cc-2oc2cc(O)ccc12 (stereo not given)  growth inhibition             %               92
 5        CC(=O)/C=C/c1cc([N+](=O)[O-])ccc1O  growth inhibition             %               99
 6       Clc1ccc(/C(=C\c2ccccc2)Cn2ccnc2)cc1  growth inhibition             %               67
 7  CC(C)OP(=O)(OC(C)C)/C(Cl)=N/Nc1ccc([N+](=O)[O-])cc1  growth inhibition             %               90
 8  COc1cccc(/C=C2\S/C(=N/Nc3nc(-c4ccc([N+](=O)[O-])cc4)cs3)NC2=O)c1O  growth inhibition             %               83
 9                      Cc1cc(C)c2[s+]snc2c1  growth inhibition             %               29
10  C[n+]1c(-c2ccc(/C=N/NC(=O)c3ccc(C(=O)N/N=C/c4ccc(-c5cn6ccccc6[n+]5C)cc4)cc3)cc2)cn2ccccc21  growth inhibition             %               76
